Each item that follows carries a reported apparent KD of K4 kissing-loop reporter.
System: K4 kissing-loop RNA reporter;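 note: bound reporter read as fluorescence of individual clusters on recovered sequencing chips by microscopy, with normalized cluster intensities fitted with a binding model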
Test: apparent KD of K4 kissing-loop reporter; higher = weaker reporter binding
Conditions: Eterna round: R107; input ligand: none
OBSERVATION TYPE: apparent KD of K4 kissing-loop reporter

>  <POLYMER SEQUENCE>
GCAGUGAUGUUGCGGAUGUACAGUGGCGUGCGAGGACCGGUACGGCCGCCACUCGUACAGAGCGAGCUAAUACAUCGAUAGGUGA [whbob_SS_Tryp_A_m5]

>  <RESULT>
236 nM

$$$$
>  <POLYMER SEQUENCE>
GGGAGUAGUGCGGCCGCCACUGUGAAAGUAGAAGAAUAUAGUGAUGUUAUAUAGGAUUAAAAGAAUAGGACCGGGCAUUAGAUUU [SSTRyptB.W]

>  <RESULT>
219 nM

$$$$
>  <POLYMER SEQUENCE>
AGAGUUAUGCGAGGAUAUGCGGUUAGUACUCAAAGAGUACUAACGCAGAGUGAUGUUCUGUGAAACACAGAAGGCGCAUAACUCA [Omei KL FMN B SS B v1]

>  <RESULT>
475 nM

$$$$
